This section presents compounds with their documented pKi values.
Biological target: UniProtKB P28335
Sequence (P28335 whole entry): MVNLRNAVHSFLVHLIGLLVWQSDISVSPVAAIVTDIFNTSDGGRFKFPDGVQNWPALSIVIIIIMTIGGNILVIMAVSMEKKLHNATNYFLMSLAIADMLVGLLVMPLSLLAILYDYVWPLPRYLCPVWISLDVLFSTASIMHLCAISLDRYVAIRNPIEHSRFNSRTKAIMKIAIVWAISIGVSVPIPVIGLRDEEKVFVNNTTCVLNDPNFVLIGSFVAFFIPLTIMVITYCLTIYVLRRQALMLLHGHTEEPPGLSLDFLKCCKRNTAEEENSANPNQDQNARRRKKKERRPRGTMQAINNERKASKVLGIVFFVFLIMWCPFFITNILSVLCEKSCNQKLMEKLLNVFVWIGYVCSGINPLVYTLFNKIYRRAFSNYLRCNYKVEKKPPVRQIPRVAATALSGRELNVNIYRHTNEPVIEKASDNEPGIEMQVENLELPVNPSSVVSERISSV
pKi: −log10 of the molar value.

smilesData	pKi
O=C(NCCCCN1CCN(c2ccccc2)CC1)c1ccccn1	< 6.00
O=C(NCCCCN1CCN(c2ccccc2)CC1)c1cccnc1	< 6.00
O=C(NCCCCN1CCN(c2cnc3ccccc3c2)CC1)c1ccccc1	< 6.00
O=C(NCCCCN1CCN(Cc2ccccc2)CC1)c1cc2ccccc2o1	< 6.00
O=C(NCCCCN1CCN(c2ccccn2)CC1)c1ccc2ccccc2n1	< 6.00
